Hey, just so you know, these numbers are from the supplement of paper PMC10567573.

Experiment: protein stability index of a GFP-peptide fusion (GPS, HEK-293T) (PSI 1-6); higher = more stable;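 further: 24-mer peptide tiles fused after GFP, lentivirally expressed, FACS-sorted into six equal bins by GFP/DsRed ratio, decoded by Illumina sequencing, PSI is the read-weighted mean bin number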
Conditions: treatment: DMSO; c terminus: a fixed tail appended
Rule: protein stability index of 3 or more gives 1.0; anything lower gives 0.0.

Query string: Say whether VNKITFSEQCYYIFGDLCGNMANL [DVL3] shows protein stability index of 3 or more.
Result string: 0.0

Query string: Say whether VSSSVIEQLFFVRLVGKTPIETLI [NR2F2] shows protein stability index of 3 or more.
Result string: 0.0

Query string: Say whether FFKGLVEAVESTLQTPLDIRLKES [TRIM14] shows protein stability index of 3 or more.
Result string: 0.0

Query string: Say whether DYNQAEMKQRDNCKIRIQRQLEIM [STX11] shows protein stability index of 3 or more.
Result string: 0.0

Query string: Say whether WELGGGTSLLDLISIPITGDTLRT [DYNC2LI1] shows protein stability index of 3 or more.
Result string: 0.0

Query string: Say whether NVMTQSFGAVNLSSPSNMLPVRPQ [CLINT1] shows protein stability index of 3 or more.
Result string: 1.0

Query string: Say whether NWATTPSSQKKDTSSSTVVSTQRS [TIA1] shows protein stability index of 3 or more.
Result string: 1.0

---

Assay: protein stability index of a GFP-peptide fusion (GPS, HEK-293T) (PSI 1-6); higher = more stable
Details: treatment: MLN4924 1 uM, 8 h; c terminus: a fixed tail appended
Rule: protein stability index of 3 or more gives 1; anything lower gives 0.

Query string: Say whether WGKRKNKPKMNYEKLSRGLRYYYD [ETS2] shows protein stability index of 3 or more.
Result string: 0

Query string: Say whether GRGDEASEEGQNGSSPKSKTKWTK [ADD1] shows protein stability index of 3 or more.
Result string: 1

Query string: Say whether NSSVWNSHLQTNYSKTFQRSNVDF [NECAB1] shows protein stability index of 3 or more.
Result string: 0

Query string: Say whether AQVPDTRWSRVGGQRFYSRVLSPL shows protein stability index of 3 or more.
Result string: 0

Query string: Say whether ENGSVSSSETPPPPPPPNEINPPP [EIF5] shows protein stability index of 3 or more.
Result string: 1

Query string: Say whether LAELQEQLKAVHEQLAALSQAPVN [BRD3] shows protein stability index of 3 or more.
Result string: 1

Query string: Say whether KAHKYSELIILYEKKGLHEKALQV [VPS39] shows protein stability index of 3 or more.
Result string: 0

Query string: Say whether AEVQAKLENAEVLELTVRRVQGVL [HES6] shows protein stability index of 3 or more.
Result string: 0

Query string: Say whether PVVKLLHNRSNNKYSYTSTSDDNL [KCTD13] shows protein stability index of 3 or more.
Result string: 1

Query string: Say whether PGAEEAQDPEGKGEQEHSQQKEEE [CHGA] shows protein stability index of 3 or more.
Result string: 1

Query string: Say whether QFRMAQEEARRNRLMRDMAQLRLQ [SMG5] shows protein stability index of 3 or more.
Result string: 1

Query string: Say whether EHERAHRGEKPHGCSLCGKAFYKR [ZNF649] shows protein stability index of 3 or more.
Result string: 1

Query string: Say whether VRTSYQPSSPGRFTKETTQKNFNN [TRIM29] shows protein stability index of 3 or more.
Result string: 1

Query string: Say whether ETSYLEMAAGSEPESVEASPVVVE [KMT2E] shows protein stability index of 3 or more.
Result string: 1

Query string: Say whether IINAKSNDGWTPLHVAAHYGRDSF [ASB7] shows protein stability index of 3 or more.
Result string: 0

Query string: Say whether SGSRHPPWARGCGMFTFLSSVTAA [SLC2A12] shows protein stability index of 3 or more.
Result string: 0

Query string: Say whether DKFIEDYLLPDTCFRMQINHAIDI [OAS1] shows protein stability index of 3 or more.
Result string: 0

Query string: Say whether PGAPPGRDLASVPPELTASRQSFR [DVL3] shows protein stability index of 3 or more.
Result string: 1

Query string: Say whether GLLLRGAVDGILHMFTPKLDKMLD [SLC6A17] shows protein stability index of 3 or more.
Result string: 0

Query string: Say whether KLGWGHFSTVWLCWDMQGKRFVAM [SRPK2] shows protein stability index of 3 or more.
Result string: 0

Query string: Say whether SQFHSVRPQGPQLRQQQHKQNKQV [DNAJC4] shows protein stability index of 3 or more.
Result string: 1

Query string: Say whether NVMTQSFGAVNLSSPSNMLPVRPQ [CLINT1] shows protein stability index of 3 or more.
Result string: 1

Query string: Say whether AKQLQAVKRKIRDESLCPQHHEAL [TRIM39] shows protein stability index of 3 or more.
Result string: 1

Query string: Say whether TLPKSLSLPTTAPSNSSSLTLSGI [MYBL2] shows protein stability index of 3 or more.
Result string: 1

Query string: Say whether DGISIPELREACDYLCISFEYSTI [BTBD10] shows protein stability index of 3 or more.
Result string: 0

Query string: Say whether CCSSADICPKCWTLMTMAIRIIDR [PRIM1] shows protein stability index of 3 or more.
Result string: 0

Query string: Say whether DSASLPRKPSVPWQRQMDQPQDRN [RASAL3] shows protein stability index of 3 or more.
Result string: 1

Query string: Say whether RAPQLHLEYRFYEQLGSGDGIPQV [CSNK1G3] shows protein stability index of 3 or more.
Result string: 1

Query string: Say whether EEEEEATNTHPPASLPSQKYPGPQ [CHGA] shows protein stability index of 3 or more.
Result string: 1

Query string: Say whether GYPTYKEKVKKRPGGRPEVIYNYV [BTBD10] shows protein stability index of 3 or more.
Result string: 0

Query string: Say whether GLSSVSPSHLLLPPDTVSRTGLEK [SPDEF] shows protein stability index of 3 or more.
Result string: 1

Query string: Say whether IELNGGQPPLTYKRFQTLISKMEP [CRY1] shows protein stability index of 3 or more.
Result string: 0

Query string: Say whether NDMSPSNNVVPIHVPPTTENKPKV [RAB11A] shows protein stability index of 3 or more.
Result string: 1

Query string: Say whether LASHHNHFSQIVIFMLCTLVLAIP [OR10K2] shows protein stability index of 3 or more.
Result string: 1

Query string: Say whether NLPCNKFKNRLVNIMPYESTRVCL [PTPRD] shows protein stability index of 3 or more.
Result string: 0

Query string: Say whether GYKSNQVRGLYDFYLPREELWIYN [KLHDC2] shows protein stability index of 3 or more.
Result string: 0

Query string: Say whether GSAPPRATPGGGTGEAARPHKGLN [PCDHGC5] shows protein stability index of 3 or more.
Result string: 1

Query string: Say whether THTQIDQQPPRLLIVHIALPSWAD [M1AP] shows protein stability index of 3 or more.
Result string: 0

Query string: Say whether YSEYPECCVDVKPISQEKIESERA [DUSP5] shows protein stability index of 3 or more.
Result string: 1

Query string: Say whether KVPVITSSKEEQKLIATSNKPAVK [KCTD10] shows protein stability index of 3 or more.
Result string: 1

Query string: Say whether SKFKKLMKQGGAALEGSALANGRA [DLX1] shows protein stability index of 3 or more.
Result string: 1

Query string: Say whether KGKQPTSAENSVAKKEDKVPVKKQ [NANOGP8] shows protein stability index of 3 or more.
Result string: 1

Query string: Say whether GEGRSRGSANDYKDTLGKGSSLSA [KRT71] shows protein stability index of 3 or more.
Result string: 1

Query string: Say whether EFTIRDLQRLGELQSELAGVADFS [INTS4] shows protein stability index of 3 or more.
Result string: 1

Query string: Say whether KISVPRDVMLEELSLLTNRGSKMF [MYOZ1] shows protein stability index of 3 or more.
Result string: 0

Query string: Say whether ASAETLPAGFRVSTLGTLQPPPAP [PPFIA4] shows protein stability index of 3 or more.
Result string: 1

Query string: Say whether LREKLRLREAEIARIRDEEAQRAS [LRRC45] shows protein stability index of 3 or more.
Result string: 1

Query string: Say whether VTTRQVRTIVEEVQDGKVISSREQ [KRT17] shows protein stability index of 3 or more.
Result string: 1

Query string: Say whether TPESTKPGPVCQPPVSQSRSLFSS [ANKRD40] shows protein stability index of 3 or more.
Result string: 1
